pIC50: −log10 of the molar value.
Study the reported pIC50 values for CREB-binding protein (Homo sapiens) given below; they originate from different publications.
Result Type: pIC50

Recorded results for 2 compounds are shown here.
# Compound, System Under Test, pIC50
records = [
    ("COc1ccc(C2(C(=O)N(C)[C@H](CO)C(=O)Nc3ccc4[nH]ncc4n3)CCC(F)(F)CC2)cc1", "CREB-binding protein (Homo sapiens)", 6.81),
    ("COc1ccc(C2(C(=O)N3CCC[C@@H]3C(=O)Nc3ccc(O)c(Cl)c3)CCCC2)cc1", "CREB-binding protein (Homo sapiens)", 7.44),
]

a: CCOC(=O)n1cc(C)c2c1C(c1ccc(Cl)cc1)N(c1cc(C)c3nnc(C)n3c1)C2=O (centres unmarked)
b: Cc1cc(N2C(=O)c3cc(C4CC4)n(C)c3C2c2ccc(Cl)cc2)cn(C)c1=O (centres unmarked)
c: CCC(=O)N1CCOc2ccc(N3CCCc4cc(-c5cnn(C)c5)ccc43)cc2C1
Let's sort these by pIC50, smallest first. Go ahead? Hello, could you send the labels back in the order asked? Thank you.
a, b, c
(a: 5.14, b: 6.21, c: 7.11)

I: CC(=O)Nc1cn(C)c2c1C(=O)N(c1cc(C)c3nnc(C(F)F)n3c1)C2c1ccc(Cl)cc1 (centres unmarked)
II: Cn1cc(-c2cc3c(cc2C(F)F)N(c2ccc4oc(=O)n(C)c4c2)CCC3)cn1
Pick the one with the larger pIC50: I vs II API: response body contains the label of the selected item.
II
(II: 6.32, I: 4.86)
